target of assay: UGT1A1 (Homo sapiens)
Sequence (P22309 26-533): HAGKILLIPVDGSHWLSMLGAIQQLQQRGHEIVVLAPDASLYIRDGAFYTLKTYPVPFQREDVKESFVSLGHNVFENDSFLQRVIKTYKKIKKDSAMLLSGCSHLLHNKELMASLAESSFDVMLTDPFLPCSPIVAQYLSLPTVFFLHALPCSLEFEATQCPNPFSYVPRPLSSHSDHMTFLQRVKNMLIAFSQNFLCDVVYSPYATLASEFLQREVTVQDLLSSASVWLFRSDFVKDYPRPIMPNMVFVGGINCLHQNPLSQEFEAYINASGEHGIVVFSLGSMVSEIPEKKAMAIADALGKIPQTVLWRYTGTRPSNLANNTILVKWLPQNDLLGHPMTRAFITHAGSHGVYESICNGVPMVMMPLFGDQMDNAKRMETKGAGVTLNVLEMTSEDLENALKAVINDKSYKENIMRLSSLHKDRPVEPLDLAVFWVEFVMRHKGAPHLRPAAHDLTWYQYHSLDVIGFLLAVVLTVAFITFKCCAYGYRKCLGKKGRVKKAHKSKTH
protocol notes: Inhibition of raloxifene glucuronidation by recombinant UGT1A1 Supersomes
experimental context: human, recombinant UGT1A1 Supersomes, pH 7.5, probe raloxifene 50 μM (formation of glucuronide G2), Inhibition of raloxifene glucuronidation, G2, UGT1A1, G2; inhibitor 2 μM; raloxifene 50 μM, 250 μg/ml Supersomes, 1 mM UDPGA, 15 min
recorded metric: activity at 15 min, 2 μM (%)

# compound structure string, target of assay, numeric readout
measured = [
    ("O=C(OC[C@H]1O[C@@H](OC(=O)c2cc(O)c(O)c(OC(=O)c3cc(O)c(O)c(O)c3)c2)[C@H](OC(=O)c2cc(O)c(O)c(OC(=O)c3cc(O)c(O)c(O)c3)c2)[C@@H](OC(=O)c2cc(O)c(O)c(OC(=O)c3cc(O)c(O)c(O)c3)c2)[C@@H]1OC(=O)c1cc(O)c(O)c(OC(=O)c2cc(O)c(O)c(O)c2)c1)c1cc(O)c(O)c(OC(=O)c2cc(O)c(O)c(O)c2)c1", "UGT1A1 (Homo sapiens)", 71),
]
